assayMethodText: Anti-inflammatory activity using bovine serum albumin and egg albumin proteins incubated at 37 degC for 20 mins and then heated to 95 degC for 20 mins by UV-visible Spectrophotometry based protein denaturation method
Assay type: functional
reportedEndpoint: IC50

>>> df
                          chemicalstructure       result
0  COC(=O)c1nnn(Cc2cn(-c3ccccc3)nc2-c2ccc(C)cc2)c1C(=O)OC   Not Active
1  CCOC(=O)c1nnn(Cc2cn(-c3ccccc3)nc2-c2ccccc2)c1C(=O)OCC   Not Active
2  CCOC(=O)c1nnn(Cc2cn(-c3ccccc3)nc2-c2ccc(C)cc2)c1C(=O)OCC   Not Active
3  OCc1cn(Cc2cn(-c3ccccc3)nc2-c2ccc(Cl)cc2)nn1  68.24 µg/mL

# input for lookup
Can you look up the measured IC50 of `OCc1cn(Cc2cn(-c3ccc(Cl)cc3)nc2-c2ccccc2)nn1` for me?
63.74 µg/mL

----------
assayMethodText: Anti-inflammatory activity using bovine serum albumin and egg albumin proteins incubated at 37 degC for 20 mins and then heated to 95 degC for 20 mins by UV-visible Spectrophotometry based protein denaturation method
Assay type: functional
reportedEndpoint: IC50

Below, each entry is followed by its recorded IC50 result.
>>> df
                          chemicalstructure       result
0  [N-]=[N+]=NCc1cn(-c2ccccc2)nc1-c1ccc(Cl)cc1   Not Active
1         OCc1cn(-c2ccccc2)nc1-c1ccc(Cl)cc1  59.79 µg/mL
2         OCc1cn(-c2ccc(Cl)cc2)nc1-c1ccccc1  54.21 µg/mL
3  CCOC(=O)c1nnn(Cc2cn(-c3ccccc3)nc2-c2ccc(Cl)cc2)c1C(=O)OCC   Not Active
4  CN(C)c1ccc(-c2cn(Cc3cn(-c4ccccc4)nc3-c3ccccc3)nn2)cc1   Not Active
5  Cc1ccc(-c2nn(-c3ccccc3)cc2Cn2cc(-c3ccccc3)nn2)cc1   Not Active
6       OCc1cn(-c2ccccc2)nc1-c1ccc(Cl)cc1Cl  62.37 µg/mL
7  COc1ccc(-c2nn(-c3ccccc3)cc2Cn2cc(-c3ccccc3)nn2)cc1   Not Active

# per-item lookup of IC50; items listed below
1. CCOC(=O)c1nnn(Cc2cn(-c3ccc(Cl)cc3)nc2-c2ccccc2)c1C(=O)OCC
2. Clc1ccc(-n2cc(Cn3cc(-c4ccccc4)nn3)c(-c3ccccc3)n2)cc1

1. Not Active
2. Not Active

----------
System: Salmonella typhi
assayMethodText: Antimicrobial activity against Salmonella typhi at 1 mg/ml incubated for 20 to 30 mins followed by incubation for 24 hrs at 37 degC by agar plate method
Assay type: functional
measurementConditions: Salmonella enterica subsp. enterica serovar Typhi
Calls of active or inactive are those of the source. The calls are words filed in the database; no cut-off is given here.
reportedEndpoint: diameter of the inhibition zone (DIZ)

Consider the reported diameter of the inhibition zone (DIZ) for these compounds:
In [3]: df
Out[3]:
                          chemicalstructure    result
0  CCOC(=O)c1nnn(Cc2cn(-c3ccccc3)nc2-c2ccc(Cl)cc2)c1C(=O)OCC  inactive
1  Cc1ccc(-c2nn(-c3ccccc3)cc2Cn2cc(-c3ccccc3)nn2)cc1  inactive
2  COc1ccc(-c2cn(Cc3cn(-c4ccccc4)nc3-c3ccccc3)nn2)cc1  inactive
3  Cc1ccc(-n2cc(CN=[N+]=[N-])c(-c3ccccc3)n2)cc1  inactive

Provide reported diameter of the inhibition zone (DIZ) for each item, in the same order as listed.
1. Clc1ccc(-n2cc(Cn3cc(-c4ccccc4)nn3)c(-c3ccccc3)n2)cc1
2. COC(=O)c1nnn(Cc2cn(-c3ccc(C)cc3)nc2-c2ccccc2)c1C(=O)OC
3. CCOC(=O)c1nnn(Cc2cn(-c3ccc(Cl)cc3)nc2-c2ccccc2)c1C(=O)OCC
4. [N-]=[N+]=NCc1cn(-c2ccccc2)nc1-c1ccc(Cl)cc1
5. CCOC(=O)c1nnn(Cc2cn(-c3ccccc3)nc2-c2ccc(C)cc2)c1C(=O)OCC
6. Clc1ccc(-c2nn(-c3ccccc3)cc2Cn2cc(-c3ccccc3)nn2)cc1
7. CCOC(=O)c1nnn(Cc2cn(-c3ccc(C)cc3)nc2-c2ccccc2)c1C(=O)OCC
8. COc1ccc(-c2nn(-c3ccccc3)cc2Cn2cc(-c3ccccc3)nn2)cc1

["inactive", "inactive", "inactive", "inactive", "inactive", "inactive", "inactive", "inactive"]

Provide the reported diameter of the inhibition zone (DIZ) of each entry below, same order.
1. COC(=O)c1nnn(Cc2cn(-c3ccc(Cl)cc3)nc2-c2ccccc2)c1C(=O)OC
2. COC(=O)c1nnn(Cc2cn(-c3ccccc3)nc2-c2ccc(Cl)cc2)c1C(=O)OC

1: inactive; 2: inactive

Please report diameter of the inhibition zone (DIZ) for every entry that follows.
1. [N-]=[N+]=NCc1cn(-c2ccccc2)nc1-c1ccc(Cl)cc1Cl
2. COc1ccc(-c2nn(-c3ccccc3)cc2CN=[N+]=[N-])cc1

["inactive", "inactive"]

----------
Test system: Micrococcus luteus
assayMethodText: Antimicrobial activity against Micrococcus luteus incubated for 12 to 16 hrs by tube dilution method
Type: functional
The source made the active and inactive calls. The rule behind the calls is not given here.
reportedEndpoint: MIC

Here is how some compounds turned out for MIC.
                          chemicalstructure     result
0  COC(=O)c1nnn(Cc2cn(-c3ccc(Cl)cc3)nc2-c2ccccc2)c1C(=O)OC   inactive
1         OCc1cn(-c2ccc(Cl)cc2)nc1-c1ccccc1  3.9 µg/mL
2  CCOC(=O)c1nnn(Cc2cn(-c3ccccc3)nc2-c2ccc(Cl)cc2)c1C(=O)OCC   inactive
3  COC(=O)c1nnn(Cc2cn(-c3ccccc3)nc2-c2ccc(Cl)cc2)c1C(=O)OC   inactive
4  COc1ccc(-c2nn(-c3ccccc3)cc2Cn2cc(CO)nn2)cc1  125 µg/mL

Parameters: items (list). Returns: MIC for each item.
1. [N-]=[N+]=NCc1cn(-c2ccccc2)nc1-c1ccccc1
2. c1ccc(-c2cn(Cc3cn(-c4ccccc4)nc3-c3ccccc3)nn2)cc1
3. CCOC(=O)c1nnn(Cc2cn(-c3ccc(Cl)cc3)nc2-c2ccccc2)c1C(=O)OCC

["inactive", "inactive", "inactive"]

Please state MIC for every compound in the list that follows.
1. FC(F)(F)c1ccc(-c2cn(Cc3cn(-c4ccccc4)nc3-c3ccccc3)nn2)c(C(F)(F)F)c1
2. Brc1ccc(-c2cn(Cc3cn(-c4ccccc4)nc3-c3ccccc3)nn2)cc1

["inactive", "inactive"]

----------
Test system: Staphylococcus aureus
assayMethodText: Antimicrobial activity against Staphylococcus aureus at 1 mg/ml incubated for 20 to 30 mins followed by incubation for 24 hrs at 37 degC by agar plate method
Format: functional
Active and inactive are the calls of the source. No cut-off for these calls is given here.
reportedEndpoint: diameter of the inhibition zone (DIZ)

Recorded diameter of the inhibition zone (DIZ), per entry:
>>> print(df.to_string())
                          chemicalstructure    result
0  COC(=O)c1nnn(Cc2cn(-c3ccc(C)cc3)nc2-c2ccccc2)c1C(=O)OC  inactive
1  COC(=O)c1nnn(Cc2cn(-c3ccc(Cl)cc3)nc2-c2ccccc2)c1C(=O)OC  inactive
2  Clc1ccc(-c2cn(Cc3cn(-c4ccccc4)nc3-c3ccccc3)nn2)cc1  inactive
3  Cc1ccc(-n2cc(Cn3cc(-c4ccccc4)nn3)c(-c3ccccc3)n2)cc1  inactive
4  CCOC(=O)c1nnn(Cc2cn(-c3ccccc3)nc2-c2ccccc2)c1C(=O)OCC  inactive

Batch request: diameter of the inhibition zone (DIZ) per item, same order as input.
1. FC(F)(F)c1ccc(-c2cn(Cc3cn(-c4ccccc4)nc3-c3ccccc3)nn2)c(C(F)(F)F)c1
2. COc1ccc(-c2nn(-c3ccccc3)cc2Cn2cc(-c3ccccc3)nn2)cc1
3. COC(=O)c1nnn(Cc2cn(-c3ccccc3)nc2-c2ccccc2)c1C(=O)OC
4. CCOC(=O)c1nnn(Cc2cn(-c3ccccc3)nc2-c2ccc(OC)cc2)c1C(=O)OCC

inactive
inactive
inactive
inactive

----------
assayMethodText: Anti-inflammatory activity using bovine serum albumin and egg albumin proteins incubated at 37 degC for 20 mins and then heated to 95 degC for 20 mins by UV-visible Spectrophotometry based protein denaturation method
Assay type: functional
reportedEndpoint: IC50

In [3]: df
Out[3]:
                                   compound  reportedendpoint        result
0  Cc1ccc(-c2nn(-c3ccccc3)cc2Cn2cc(CO)nn2)cc1              IC50  128.89 µg/mL
1  COc1ccc(-c2cn(Cc3cn(-c4ccccc4)nc3-c3ccccc3)nn2)cc1              IC50    Not Active
2  O=C([O-])Cc1ccccc1Nc1c(Cl)cccc1Cl.[Na+] [DICLOFENAC SODIUM]              IC50    53.7 µg/mL
3             OCc1cn(-c2ccccc2)nc1-c1ccccc1              IC50   56.86 µg/mL

Batch lookup, IC50 per entry.
1. Fc1ccc(-c2cn(Cc3cn(-c4ccccc4)nc3-c3ccccc3)nn2)cc1
2. COC(=O)c1nnn(Cc2cn(-c3ccc(C)cc3)nc2-c2ccccc2)c1C(=O)OC

["Not Active", "Not Active"]

Provide reported IC50 for each item, in the same order as listed.
1. Cc1ccc(-n2cc(CO)c(-c3ccccc3)n2)cc1
2. Cc1ccc(-n2cc(CN=[N+]=[N-])c(-c3ccccc3)n2)cc1C
3. COC(=O)c1nnn(Cc2cn(-c3ccccc3)nc2-c2ccccc2)c1C(=O)OC
4. Cc1ccc(-n2cc(Cn3cc(CO)nn3)c(-c3ccccc3)n2)cc1C
5. OCc1cn(Cc2cn(-c3ccccc3)nc2-c2ccc(Cl)cc2Cl)nn1
6. COc1ccc(-c2nn(-c3ccccc3)cc2CN=[N+]=[N-])cc1

73.42 µg/mL
Not Active
Not Active
64.44 µg/mL
65.17 µg/mL
Not Active
